Value kind: pIC50
API: returns pIC50 as number; meaning -log10 of concentration in mol/L.

Given the compound O=C(CCCCCONC(=O)c1nc(-c2ccc(N3CCCC3)cc2)cs1)NO and test system Histone deacetylase 11 (Homo sapiens, UniProt Q96DB2), the measured pIC50 is 4.44

* * *

# Test protocol: in vivo
# Assay conditions: Balb/c, mouse, po, 50 mg/kg
Value kind: AUC(0-t) at 6 h (µg·h/mL)
Number in µg·h/mL, nothing else.

Entry O=C(CCCCCCC(=O)Nc1ccccc1)NO , AUC(0-t) at 6 h reported as 0.347

* * *

# Test protocol: Half life in Balb/c mouse at 50 mg/kg, po measured upto 6 hrs by LC-MS/MS analysis
# Assay conditions: in vivo
Value kind: half-life at 6 h (min)
Express it in min; write the number only.

Recorded result, O=C(CCCCCCC(=O)Nc1ccccc1)NO [VORINOSTAT] , half-life at 6 h: 48

* * *

# Test protocol: Ratio of drug concentration in human blood to plasma
# Type: ADME, cell-free
Value kind: blood plasma ratio
// no unit, no text: just the number

Looking up COc1ccccc1OCCNCC(O)COc1cccc2[nH]c3ccccc3c12 (stereo unspecified) , I see its blood plasma ratio listed as 0.76

* * *

pIC50: −log10 of the molar value.
// pIC50 collected for Histone deacetylase 4 (Homo sapiens)

Briefly, pIC50 measured for O=C(CCCCCONC(=O)c1nc(-c2ccc(C(F)(F)F)cc2)cs1)NO : < 4.00

Measured pIC50 of COc1ccccc1-c1csc(C(=O)NOCCCCCC(=O)NO)n1 : < 4.00

Form: compound = COc1ccc(-c2csc(C(=O)NOCCCCCC(=O)NO)n2)cc1 ; pIC50 = < 4.00

* * *

# Test protocol: Half life in mouse at 50 mg/kg, po by LC/MS/MS analysis
# Assay conditions: in vivo
Value kind: half-life (min)
Write it as a number; the unit min goes unstated.

Just so you know, measured half-life for O=C(CCCCCCC(=O)Nc1ccccc1)NO came out at 45

* * *

I'd be grateful if you could share measured pIC50 for these entries.
# Tested on: HPBALL
# Test protocol: Antiproliferative activity against human HPBALL cells assessed as inhibition of cell growth incubated for 72 hrs by celltiter-glo assay
# Assay type: functional, cell-based
Remember, pIC50 is on a log scale: it is -log10 of the molar concentration.

The molecule identified as O=C(/C=C/c1cccc(S(=O)(=O)Nc2ccccc2)c1)NO registered its pIC50 at 6.57

Documented pIC50 of CC(=O)Nc1ccc(C(=O)Nc2ccccc2N)cc1 : 5.33

Entry under test: O=C(CCCCCCC(=O)Nc1ccccc1)NO . Its pIC50 was 6.08

Entry under test: O=C(CCCCCCNC(=O)c1cnc(N(c2ccccc2)c2ccccc2)nc1)NO . Its pIC50 was 5.59

* * *

# Test protocol: AUClast in mouse at 50 mg/kg, po by LC/MS/MS analysis
# Assay conditions: in vivo
Value kind: AUC(0-t) (ng·h/mL)
Report only the number, with the unit ng·h/mL understood.

# AUC(0-t) of O=C(CCCCCCC(=O)Nc1ccccc1)NO [VORINOSTAT] = 619

* * *

# Test system: Histone deacetylase 3/Nuclear receptor corepressor 2 (HDAC3/NCoR2) (Homo sapiens)
# Sequence (O15379 whole entry): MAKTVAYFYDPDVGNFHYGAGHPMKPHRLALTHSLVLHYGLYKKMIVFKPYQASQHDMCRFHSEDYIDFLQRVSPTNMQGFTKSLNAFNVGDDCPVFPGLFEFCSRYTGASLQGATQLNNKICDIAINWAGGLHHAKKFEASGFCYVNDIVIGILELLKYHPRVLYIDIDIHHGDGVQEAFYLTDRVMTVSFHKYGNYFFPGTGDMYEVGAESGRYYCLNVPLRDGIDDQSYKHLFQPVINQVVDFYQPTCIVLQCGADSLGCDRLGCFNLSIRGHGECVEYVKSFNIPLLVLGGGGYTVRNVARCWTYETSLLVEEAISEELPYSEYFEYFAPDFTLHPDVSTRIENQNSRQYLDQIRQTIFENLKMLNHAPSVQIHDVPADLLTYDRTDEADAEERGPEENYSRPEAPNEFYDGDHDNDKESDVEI
# Sequence (Q9Y618 whole entry, further chain): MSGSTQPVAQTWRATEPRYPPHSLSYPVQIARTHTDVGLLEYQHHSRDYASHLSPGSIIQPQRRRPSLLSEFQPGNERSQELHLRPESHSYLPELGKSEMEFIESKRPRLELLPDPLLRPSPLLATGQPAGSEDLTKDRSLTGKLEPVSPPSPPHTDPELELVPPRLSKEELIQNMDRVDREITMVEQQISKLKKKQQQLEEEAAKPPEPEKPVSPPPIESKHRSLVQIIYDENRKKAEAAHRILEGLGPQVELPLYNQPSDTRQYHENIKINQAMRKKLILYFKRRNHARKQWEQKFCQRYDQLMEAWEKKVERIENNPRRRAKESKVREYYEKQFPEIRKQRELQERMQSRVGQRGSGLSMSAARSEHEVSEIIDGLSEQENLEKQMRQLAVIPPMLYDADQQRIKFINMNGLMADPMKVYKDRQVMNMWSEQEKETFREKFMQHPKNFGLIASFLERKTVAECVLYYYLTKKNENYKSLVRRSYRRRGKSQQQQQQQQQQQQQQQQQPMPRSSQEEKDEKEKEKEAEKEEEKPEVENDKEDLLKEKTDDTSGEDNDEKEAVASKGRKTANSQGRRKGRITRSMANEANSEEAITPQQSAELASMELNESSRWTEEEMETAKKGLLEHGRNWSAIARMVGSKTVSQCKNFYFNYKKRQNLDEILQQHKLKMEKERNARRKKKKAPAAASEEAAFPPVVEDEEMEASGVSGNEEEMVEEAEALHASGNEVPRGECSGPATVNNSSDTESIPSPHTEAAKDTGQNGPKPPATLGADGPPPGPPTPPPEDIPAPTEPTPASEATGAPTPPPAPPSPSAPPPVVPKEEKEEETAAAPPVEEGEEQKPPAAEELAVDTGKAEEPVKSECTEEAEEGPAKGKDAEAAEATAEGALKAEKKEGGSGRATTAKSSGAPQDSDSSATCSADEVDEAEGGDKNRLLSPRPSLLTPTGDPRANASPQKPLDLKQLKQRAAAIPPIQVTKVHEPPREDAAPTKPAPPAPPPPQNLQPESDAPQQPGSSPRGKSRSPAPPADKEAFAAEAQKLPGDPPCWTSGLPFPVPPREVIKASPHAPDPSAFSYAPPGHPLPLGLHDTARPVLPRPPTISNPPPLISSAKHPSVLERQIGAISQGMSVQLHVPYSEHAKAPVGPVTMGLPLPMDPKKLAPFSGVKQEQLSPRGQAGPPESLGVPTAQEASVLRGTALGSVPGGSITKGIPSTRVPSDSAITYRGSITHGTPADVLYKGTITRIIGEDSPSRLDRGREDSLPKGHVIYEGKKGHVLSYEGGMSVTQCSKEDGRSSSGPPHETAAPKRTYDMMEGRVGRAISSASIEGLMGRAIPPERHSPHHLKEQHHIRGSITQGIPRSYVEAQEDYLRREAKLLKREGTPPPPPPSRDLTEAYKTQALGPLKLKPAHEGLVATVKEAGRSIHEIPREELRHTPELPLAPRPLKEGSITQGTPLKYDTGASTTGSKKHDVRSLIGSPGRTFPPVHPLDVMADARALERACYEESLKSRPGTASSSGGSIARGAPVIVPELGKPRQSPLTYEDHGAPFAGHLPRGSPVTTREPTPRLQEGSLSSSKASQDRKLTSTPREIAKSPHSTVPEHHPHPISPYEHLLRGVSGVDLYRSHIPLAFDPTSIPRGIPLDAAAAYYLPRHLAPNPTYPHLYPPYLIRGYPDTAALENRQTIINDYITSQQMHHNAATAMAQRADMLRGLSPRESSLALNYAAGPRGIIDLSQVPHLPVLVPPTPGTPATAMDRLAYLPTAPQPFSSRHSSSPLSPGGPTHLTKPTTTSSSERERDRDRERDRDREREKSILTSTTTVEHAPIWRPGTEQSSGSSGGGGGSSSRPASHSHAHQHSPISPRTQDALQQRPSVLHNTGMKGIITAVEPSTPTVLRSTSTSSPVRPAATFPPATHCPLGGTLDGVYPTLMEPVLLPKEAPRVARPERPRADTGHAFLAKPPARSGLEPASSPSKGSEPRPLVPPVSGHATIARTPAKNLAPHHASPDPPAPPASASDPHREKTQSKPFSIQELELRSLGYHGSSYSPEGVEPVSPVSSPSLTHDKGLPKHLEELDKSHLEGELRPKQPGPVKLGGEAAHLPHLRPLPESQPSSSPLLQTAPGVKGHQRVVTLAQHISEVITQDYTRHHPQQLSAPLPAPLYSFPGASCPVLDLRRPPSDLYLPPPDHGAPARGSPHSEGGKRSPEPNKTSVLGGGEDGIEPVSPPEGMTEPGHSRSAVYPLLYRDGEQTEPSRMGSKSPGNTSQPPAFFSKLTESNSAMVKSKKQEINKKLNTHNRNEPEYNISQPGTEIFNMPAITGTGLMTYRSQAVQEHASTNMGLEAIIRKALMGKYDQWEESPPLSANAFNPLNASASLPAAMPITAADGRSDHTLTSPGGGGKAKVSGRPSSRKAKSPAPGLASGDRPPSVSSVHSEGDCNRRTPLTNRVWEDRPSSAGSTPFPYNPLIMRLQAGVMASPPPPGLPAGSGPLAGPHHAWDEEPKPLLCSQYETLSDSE
# Test protocol: Inhibition of human recombinant Human HDAC3/NCOR2 using RHKKAc as fluorogenic substrate incubated for 90 mins by fluorescence based analysis
Record form. Attribute: IC50. Fill in for each entry.
Report the figure in nM without appending any unit label.

IC50 in this record for COc1ccc(-c2csc(C(=O)NOCCCCCC(=O)NO)n2)cc1 : 13

For record O=C(CCCCCONC(=O)c1nc(-c2ccc(N3CCCC3)cc2)cs1)NO the listed IC50 is 48
